- Test system: MDA-MB-231 breast
- assay_method_text: NCI-60 one-dose screen, 48 h (100 = growth as untreated, 0 = no growth, -100 = all killed)
- test_parameters: 10 µM unless noted
This is part of a sample that, as a whole, favours compounds with a hit. Of some 83,000 tested, about 20% had one in any assay.
Kind request: treat 70% as inclusive, so growth at 70% or higher is Condition met, anything lower is Condition not met.

molecule	qualitative_label
COc1cc(/C=C/C(=O)c2c(C)nc3ccccc3c2/C=C/c2ccccc2)cc(OC)c1OC	Condition not met
COc1cc(/C=C/C(=O)N2c3ccccc3CC2C)c(OC)c2c1OCO2 (stereo not given)	Condition met
O=c1nc2sc3nc4ccccc4cc3cc-2s1	Condition met
Fc1cccc(COc2ccc(Nc3ncnc4onc(-c5ccccc5)c34)cc2)c1	Condition not met
O=C(Nc1ccc(Cl)cc1)c1cc2ccccc2cc1OP(=O)(O)O	Condition not met
Cc1nc2ccccc2c(/C=C/c2ccc(F)cc2)c1C(N)=O	Condition met
CC(C)[C@H](NC(=O)Cn1cc(C(=O)O)nn1)C(=O)O	Condition met
O=C(c1nc2ccccc2[nH]1)C1C(c2ccc([N+](=O)[O-])cc2)C2CC3CCCCC3N2[C@@]12C(=O)Nc1cc(Cl)ccc12 (stereo not given in full)	Condition not met
O=C(N/N=C/c1ccccc1Cl)C(=O)Nc1cccc(C(F)(F)F)c1	Condition met
CCOC(=O)CSc1c(-c2ccccc2)c2cc(Cl)ccc2[nH]c1=O	Condition met
NC1(N2SC(S)=C3CCCC=C32)CCCCC1	Condition met
COc1cc2c(cc1OC)C(=O)C(CC1CCN(C(=O)Nc3ccc(C)cc3)CC1)C2 (stereo not given)	Condition met
O=c1oc2ccc(Cl)cc2c(=O)n1-c1cc(C(F)(F)F)cc(C(F)(F)F)c1	Condition not met
COc1ccc2c(c1)C=C1CSCC3=Cc4cc(OC)ccc4OC13O2	Condition not met
O=c1oc2ccc(Cl)cc2c(=O)n1-c1ccc(F)cc1F	Condition not met
COc1ccccc1C1=C(Br)C(=O)c2nc(C)ccc2C1=O	Condition met
COc1cc(/C=C2\CN(C)C/C(=C\c3cc(CN4CCCCC4)c(O)c(OC)c3)C2=O)cc(CN2CCCCC2)c1O	Condition not met
O=C(NC1CCN(Cc2ccccc2)CC1)c1cc(C(=O)NC2CCN(Cc3ccccc3)CC2)cc(C(=O)NC2CCN(Cc3ccccc3)CC2)c1	Condition met
Cc1c(C(=O)OCCO)cc(-c2ccc(Cl)cc2)n1-c1ccc(Cl)cc1Cl	Condition met

* * *

- Tested on: PC-3 prostate
- assay_method_text: NCI-60 one-dose screen, 48 h (100 = growth as untreated, 0 = no growth, -100 = all killed)
- test_parameters: 10 µM unless noted
The panel holds about 83,000 compounds, 20% with a hit somewhere; the sample as a whole holds those more often.
Mark condition not met for growth values under 40%, and condition met for everything at or above.

molecule	qualitative_label
COc1cc(/C=C2\CN(S(=O)(=O)c3ccccc3)C/C(=C\c3cc(CN4CCCC4)c(O)c(OC)c3)C2=O)cc(CN2CCCC2)c1O	condition not met
COC(=O)/C(CCC=C(C)C)=C1\[C@@H](OC(C)=O)C[C@@]2(C)[C@H]1CC(=O)N[C@H]1[C@@]3(C)CCNC(=O)[C@@H](C)[C@@H]3CC[C@@]12C	condition met
NCCNc1nc2ccc(F)cc2c2c(=O)c3cc(F)ccc3sc12	condition met
CC1=C(CC(=O)c2cccc([N+](=O)[O-])c2)C(=O)c2ccccc2C1=O	condition met
O=[N+]([O-])c1cc2c(ccc3occc32)o1	condition met
COc1cccc2c(=O)c3c(sc12)c(NCCCNCCO)nc1ccccc13	condition met
COc1cc(C2C(C#N)=C(N)OC3=C2C(=O)c2ccccc2C3=O)cc(OC)c1OC (centres undefined)	condition not met
C1=CC2(C=C1)OC21CCC2(C=CC3(C2)OC3C2CCCCC2)CC1 (centres undefined)	condition met
Oc1c(C(Nc2ccccn2)c2cccc(Oc3ccccc3)c2)ccc2cccnc12 (centres undefined)	condition not met
